The origin of these recorded values is patent US20140178935A1.

- TARGET ENTITY: T1, recombinant mhm chimeric HGF protein containing human W507-L585 HGF sequence disposed within mouse HGF … (mouse-human-mouse chimera, UniProt Q08048 56-728)
- T1 construct: CHO supernatant; also called mhm chimera (W507-L585); MHM chimera (507-585)
- T1 chain: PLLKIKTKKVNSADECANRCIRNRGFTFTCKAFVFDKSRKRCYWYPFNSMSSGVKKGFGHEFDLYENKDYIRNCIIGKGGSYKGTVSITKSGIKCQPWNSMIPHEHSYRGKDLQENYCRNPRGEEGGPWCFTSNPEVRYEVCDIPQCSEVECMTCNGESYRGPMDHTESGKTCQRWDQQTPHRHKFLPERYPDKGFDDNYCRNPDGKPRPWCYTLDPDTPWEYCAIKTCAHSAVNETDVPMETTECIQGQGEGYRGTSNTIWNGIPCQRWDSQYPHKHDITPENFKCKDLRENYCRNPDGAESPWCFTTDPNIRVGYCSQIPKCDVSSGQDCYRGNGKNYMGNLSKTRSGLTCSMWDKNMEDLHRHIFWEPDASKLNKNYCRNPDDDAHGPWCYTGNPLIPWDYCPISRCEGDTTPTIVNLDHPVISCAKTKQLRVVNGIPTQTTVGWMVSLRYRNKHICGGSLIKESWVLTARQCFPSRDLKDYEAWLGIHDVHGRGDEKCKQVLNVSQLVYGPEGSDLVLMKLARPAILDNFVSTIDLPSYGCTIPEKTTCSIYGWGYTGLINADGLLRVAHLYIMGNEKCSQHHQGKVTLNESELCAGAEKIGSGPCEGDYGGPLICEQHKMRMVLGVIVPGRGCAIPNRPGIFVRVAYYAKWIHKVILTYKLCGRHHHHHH
- ASSAY TEXT: SPR, antibody immobilized, HGF protein injected, 25 C
ASSAY READOUT: binding result

# binding result lookup, item HE2B8-3 (LRMR2B8HC + IgG1 constant region G1m(3) allotype allele 1, plus LR2B8LC + Kappa constant region Km(3) allotype allele 1) (antibody, V domains shown, Human Engineered 2B8 variant, human IgG1 kappa, made in HEK293E cells) VH: QVQLVQPGAEVKKPGTSVKLSCKASGYTFTTYWMHWVRQAPGQGLEWIGEINPTNGHTNYNQKFQGRATLTVDKSTSTAYMELSSLRSEDTAVYYCARNYVGSIFDYWGQGTLLTVSS VL: DIVMTQSPDSMAMSVGERVTLNCKASENVVSYVSWYQQKPGQSPKLLIYGASNRNTGVPDRFSGSGSATDFTLTISSVQAEDVADYHCGQSYNYPYTFGQGTKLEIKR
binds

Next: HE2B8-1 (LR2B8HC + IgG1 constant region G1m(3) allotype allele 1, plus LR2B8LC + Kappa constant region Km(3) allotype allele 1) (antibody, V domains shown, Human Engineered 2B8 variant, human IgG1 kappa, made in HEK293E cells) VH: QVQLVQPGAEVVKPGTSVKLSCKASGYTFTTYWMHWVNQAPGQGLEWIGEINPTNGHTNYNEKFKGKATLTVDKSTSTAYMELSSLRSEDTAVYYCARNYVGSIFDYWGQGTLLTVSS VL: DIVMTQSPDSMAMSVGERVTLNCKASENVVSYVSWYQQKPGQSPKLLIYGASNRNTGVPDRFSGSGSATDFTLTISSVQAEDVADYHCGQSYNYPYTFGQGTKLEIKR
binds

Next: HE2B8-2 (LR2B8HC + IgG1 constant region G1m(3) allotype allele 1, plus LRMR2B8LC + Kappa constant region Km(3) allotype allele 1) (antibody, V domains shown, Human Engineered 2B8 variant, human IgG1 kappa, made in HEK293E cells) VH: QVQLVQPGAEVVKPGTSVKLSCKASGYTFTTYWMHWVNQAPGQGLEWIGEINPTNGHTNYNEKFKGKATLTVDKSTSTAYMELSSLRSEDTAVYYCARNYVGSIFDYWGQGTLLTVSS VL: DIVMTQSPDSLAMSLGERVTLNCKASENVVSYVSWYQQKPGQSPKLLIYGASNRESGVPDRFSGSGSATDFTLTISSVQAEDVADYHCGQSYNYPYTFGQGTKLEIKR
binds
